tested on: SR leukemia; test: NCI tumour cell line growth inhibition, 48 h; in the data active means GI50 below about 0.43 µM; inactive means the rest
Classes used: active, inactive

| compound | system-under-test | class |
| --- | --- | --- |
| COC(=O)c1cc2cc(-c3ccc(OC)cc3)cnc2[nH]1 | SR leukemia | active |
| COc1ccc(CN2CCc3c(Sc4ccccc4)nc(N)nc3C2=O)c(OC)c1 | SR leukemia | inactive |
| CCN(CC)CCn1c(N)c(-c2nc3ccccc3n2C)c2nc(C#N)c(C#N)nc21 | SR leukemia | inactive |
| COc1cc(-c2cc(/C=C3\C(=O)Nc4ccc(Cl)cc43)[nH]n2)cc(OC)c1OC | SR leukemia | inactive |
| CCOC(=O)c1ccc(NC(=O)Nc2nccs2)cc1 | SR leukemia | active |
| C=CCOC1=CC(=O)c2ccccc2C1=O | SR leukemia | inactive |
| O=C1c2ccc3c4c(ccc(c24)C(=O)N1CCCNCc1ccccc1F)C(=O)N(CCCNCc1ccccc1F)C3=O | SR leukemia | active |
| COc1ccc(/C=C2\CS(=O)(=O)C/C(=C\c3ccc(OC)cc3)C2=O)cc1 | SR leukemia | active |
| CCN(CC)CCCN1C(=O)c2c(c(C)c3c(oc4ccc(O)cc43)c2C)C1=O | SR leukemia | inactive |
| C=C(C)[C@@H]1C/C=C(\COC(=O)[C@H](OC(C)=O)C(NC(=O)c2ccccc2)c2ccccc2)CC[C@H]2O[C@]2(C)CC/C=C(\C)CC1 (stereo partly drawn) | SR leukemia | inactive |
| O=C(NC1CCCCC1)NS(=O)(=O)c1ccc(-n2nc3c(c2-c2cccs2)Cc2ccccc2-3)cc1 | SR leukemia | inactive |
| CC(C)(Oc1ccc(Cl)cc1)C(=O)NC1C2CC3CC1CC(NS(C)(=O)=O)(C3)C2 (stereo not drawn) | SR leukemia | inactive |
| COc1ccc(-c2cc3c(OC)c(OC)c(OC)cc3oc2=O)cc1 | SR leukemia | inactive |

###

system: U251 CNS; test: NCI tumour cell line growth inhibition, 48 h
measure-name: TGI

| entry-smiles | observed-value |
| --- | --- |
| O=C(NNC(=O)C1CCN(S(=O)(=O)c2ccc(-c3ccccc3)cc2)CC1)c1ccc(C(F)(F)F)cc1 | > 50 µM |
| Cc1c(C(=O)C(=O)c2ccccc2)c(C)c(C(=O)C(=O)c2ccccc2)c(C)c1C(=O)C(=O)c1ccccc1 | > 100 µM |
| OCC(CO)C1c2cccc3ccc4cccc1c4c23 | > 100 µM |
| Cn1cnc([N+](=O)[O-])c1Sc1nc2ncccc2[nH]1 | > 100 µM |
| N#CCCN(CCNc1ccccc1)C(=O)Nc1ccc(NC(=O)N(CCC#N)CCNc2ccccc2)cc1 | > 100 µM |

###

system: OVCAR-4 ovarian; experiment: NCI tumour cell line growth inhibition, 48 h
measure-name: TGI

| compound | measure-name | observed-value |
| --- | --- | --- |
| CNCCCNc1c2cc(OC)ccc2nc2cccc([N+](=O)[O-])c12 | TGI | 0.0528 µM |
| N#Cc1c(-c2ccccc2)n([O-])c2ccccc2[n+]1=O | TGI | 81.8 µM |
| O=C1c2ccccc2C(=O)N1CCn1nc(-c2ccccc2)cc(-c2ccccc2)c1=O | TGI | > 100 µM |
| COc1cccc(NC(=O)CC(=O)Nc2cccc(OC)c2)c1 | TGI | > 100 µM |
| O=NN(CCCl)C(=O)NC1CCC(C(=O)O)CC1 (stereo not drawn) | TGI | > 100 µM |
| COc1ccc(/C=C2\CS(=O)(=O)C/C(=C\c3ccc(OC)cc3)C2=O)cc1 | TGI | > 30.8 µM |
| COc1cccc(-n2ncc3c(N/N=C/c4ccc(F)cc4)ncnc32)c1 | TGI | 14.5 µM |
| COc1c(-c2nc3nc(N4CCN(C)CC4)ccc3[nH]2)cc(OC)c2c1nc(CO)n2C | TGI | > 100 µM |
| Cn1c2ccccc2c(=NNc2ccc(S(N)(=O)=O)cc2)c2ccccc21 | TGI | > 50 µM |
| C[C@]12CCc3nonc3C1CC[C@@H]1C2CC[C@]2(C)C(=O)/C(=N\O)CC12 (stereo partly drawn) | TGI | > 100 µM |
| Cc1ccc2c(=O)cc(-c3cccc(Cl)c3)[nH]c2n1 | TGI | > 100 µM |
| O=C(/C=C\c1ccc(-c2ccccc2)cc1)c1cccs1 | TGI | > 100 µM |
| CCN(CCCNC(=O)Cc1cc(=O)oc2cc(N(C)C)ccc12)CCNc1ccnc2cc(Cl)ccc12 | TGI | 41.4 µM |
| Cn1cc(C2=C(c3cn(C)c4cc(C(=O)O)ccc34)C(=O)NC2=O)c2ccccc21 | TGI | > 25 µM |
| O=C(C(Br)C(Br)c1ccccc1)C(Br)C(Br)c1ccccc1 (stereo not drawn) | TGI | 2.52 µM |
| CCCCCCCCNC(=O)C1=C(C)NC(C)=C(C(=O)NCCCCCCCC)C1 | TGI | > 100 µM |
| COC(=O)C(C)(Cc1ccc2c(c1)nnn2C(C)=O)NC(C)=O (stereo not drawn) | TGI | > 100 µM |
| CC1=C(C#N)C2C(=C(C)N1)C(N)=Nc1ccccc12 (stereo not drawn) | TGI | > 100 µM |
| CCN(CC)CCCN1C(=O)c2c(c(C)c3c(oc4ccc(O)cc43)c2C)C1=O | TGI | 3.68 µM |
| COc1ccc(-c2nc3ccc([N+](=O)[O-])cc3c(=O)[nH]2)cc1 | TGI | 33.4 µM |
| CC1=C(C(=O)Nc2ccc(Cl)c(Cl)c2)C(c2ccccc2Cl)NC(=S)N1 (stereo not drawn) | TGI | > 50 µM |
| C=C1[C@@H](OC(C)=O)[C@H]2[C@@H](OC(C)=O)[C@@](C)(OC(C)=O)C[C@]2(OC(C)=O)C(=O)[C@@H](C)/C=C/C(C)(C)C(=O)C[C@H]1OC(C)=O | TGI | > 100 µM |
| COc1ccc2c(c1)O[C@@H]1[C@@H](OC3OC(CO)C(O)C(O)C3O)Oc3cc(OC)c(OC)cc3[C@]1(O)C2=O (stereo partly drawn) | TGI | > 100 µM |
| NC(=O)c1ncn2c1NCC1OC2C(O)C1O (stereo not drawn) | TGI | > 100 µM |
| CCC(/C=C(C)/C=C/C(=O)c1c(O)c(-c2ccc(O)cc2)c[nH]c1=O)CO (stereo not drawn) | TGI | > 100 µM |
| Cc1cccc(NC(=S)Nc2ccc(Cl)cc2)n1 | TGI | > 100 µM |
| CN1C(c2ccccc2)CC(=NOCc2ccccc2)CC1c1ccccc1 (stereo not drawn) | TGI | 48.9 µM |
| Cc1ccc2nc3n(c2c1)C(c1c(F)cccc1F)SC3 (stereo not drawn) | TGI | > 100 µM |

###

test system: SNB-19 CNS; assay: NCI tumour cell line growth inhibition, 48 h
Entries and their measured GI50 follow.
measure-name: GI50

| compound | system-under-test | measure-name | observed-value |
| --- | --- | --- | --- |
| COc1ccc(/C=C2\CS(=O)(=O)C/C(=C\c3ccc(OC)cc3)C2=O)cc1 | SNB-19 CNS | GI50 | 4.21 µM |
| COC(=O)[C@@H]1CCCN1C(=O)[C@@H]1CCCN1C(=O)[C@H](Cc1ccccc1)NC(=S)Nc1cc(C(F)(F)F)cc(C(F)(F)F)c1 | SNB-19 CNS | GI50 | 3.77 µM |
| CC1=C(C(=O)Nc2ccc(Cl)c(Cl)c2)C(c2ccccc2Cl)NC(=S)N1 (stereo not drawn) | SNB-19 CNS | GI50 | 0.695 µM |
| Cc1ccc(NS(=O)(=O)c2ccc(-c3cnc(C4CC4)o3)cc2)cc1C | SNB-19 CNS | GI50 | 0.522 µM |
| CCCCSSC(=S)N(CC)CC | SNB-19 CNS | GI50 | > 100 µM |
| CCN(CCCNC(=O)Cc1cc(=O)oc2cc(N(C)C)ccc12)CCNc1ccnc2cc(Cl)ccc12 | SNB-19 CNS | GI50 | 18.9 µM |
| Cc1ccc2c(NCCCN(C)C)c3c(C)nn(C)c3nc2c1 | SNB-19 CNS | GI50 | 3.96 µM |
| CN(C)c1ccc(O)c2c1CC1CC3C(N(C)C)C(=O)C(C(N)=O)=C(O)C3(O)C(=O)C1=C2O (stereo not drawn) | SNB-19 CNS | GI50 | 18.8 µM |

###

Entries and their measured TGI follow.
system: COLO 205 colon; assay: NCI tumour cell line growth inhibition, 48 h
measure-name: TGI

| molecule | measure-name | observed-value |
| --- | --- | --- |
| COc1cc(-c2cncn2-c2ccc(-c3nc4ccc(F)cc4s3)cc2)ccc1F | TGI | > 100 µM |
| COC(=O)C(Cc1nc2ccc(Cl)cc2[nH]c1=O)/C(=N/O)C(=O)Nc1cccc(Cl)c1C (stereo not drawn) | TGI | > 100 µM |
| CC1(C)N([O-])[N+](=O)C1(C)Br (stereo not drawn) | TGI | > 100 µM |
